The following molecules each carry a recorded pEC50 for Metabotropic glutamate receptor 5 (Homo sapiens, UniProt P41594).
pEC50: −log10 of the molar value.

1) O=C1N[C@H](c2cccc(C#Cc3ccccc3)c2)[C@@H](c2cccc(F)c2)O1 : < 4.52
2) O=C1N[C@H](c2cc(C#Cc3ccccc3)ccn2)[C@@H](c2ccccc2)O1 : < 5.52

Then this molecule:
[in] Consider the molecule "COc1cccc([C@H]2OC(=O)N[C@@H]2c2cccc(C#Cc3ccccc3)c2)c1" and give its recorded pEC50.
[out] < 4.52

###

# TEST NAME: Protein binding in plasma (unknown origin)
# Format: ADME, cell-free
# TEST PARAMETERS: read-out: PPB (converted)
MEASURED ATTRIBUTE: fraction unbound

1) O=C1N[C@H](c2cncc(C#Cc3ccccc3)c2)[C@@H](c2cc(F)ccc2F)O1 : 0.007
2) O=C1N[C@H](c2cncc(C#Cc3ccccc3)c2)[C@@H](c2cccc(F)c2)O1 : 0.004

1: O=C1N[C@H](c2cc(C#Cc3ccccc3)ccn2)[C@@H](c2ccccc2)O1
2: O=C1N[C@H](c2cncc(C#Cc3cncc(F)c3)c2)[C@@H](c2ccc(F)cc2)O1
3: COc1cccc([C@H]2OC(=O)N[C@@H]2c2cccc(C#Cc3ccccc3)c2)c1
[in] List these items ordered by fraction unbound, big to small. Rank them, then answer with their labels in that order.
[out] 2, 1, 3
